- experimental-target: C5 (Homo sapiens, UniProt P01031)
- Sequence (P01031 19-1676): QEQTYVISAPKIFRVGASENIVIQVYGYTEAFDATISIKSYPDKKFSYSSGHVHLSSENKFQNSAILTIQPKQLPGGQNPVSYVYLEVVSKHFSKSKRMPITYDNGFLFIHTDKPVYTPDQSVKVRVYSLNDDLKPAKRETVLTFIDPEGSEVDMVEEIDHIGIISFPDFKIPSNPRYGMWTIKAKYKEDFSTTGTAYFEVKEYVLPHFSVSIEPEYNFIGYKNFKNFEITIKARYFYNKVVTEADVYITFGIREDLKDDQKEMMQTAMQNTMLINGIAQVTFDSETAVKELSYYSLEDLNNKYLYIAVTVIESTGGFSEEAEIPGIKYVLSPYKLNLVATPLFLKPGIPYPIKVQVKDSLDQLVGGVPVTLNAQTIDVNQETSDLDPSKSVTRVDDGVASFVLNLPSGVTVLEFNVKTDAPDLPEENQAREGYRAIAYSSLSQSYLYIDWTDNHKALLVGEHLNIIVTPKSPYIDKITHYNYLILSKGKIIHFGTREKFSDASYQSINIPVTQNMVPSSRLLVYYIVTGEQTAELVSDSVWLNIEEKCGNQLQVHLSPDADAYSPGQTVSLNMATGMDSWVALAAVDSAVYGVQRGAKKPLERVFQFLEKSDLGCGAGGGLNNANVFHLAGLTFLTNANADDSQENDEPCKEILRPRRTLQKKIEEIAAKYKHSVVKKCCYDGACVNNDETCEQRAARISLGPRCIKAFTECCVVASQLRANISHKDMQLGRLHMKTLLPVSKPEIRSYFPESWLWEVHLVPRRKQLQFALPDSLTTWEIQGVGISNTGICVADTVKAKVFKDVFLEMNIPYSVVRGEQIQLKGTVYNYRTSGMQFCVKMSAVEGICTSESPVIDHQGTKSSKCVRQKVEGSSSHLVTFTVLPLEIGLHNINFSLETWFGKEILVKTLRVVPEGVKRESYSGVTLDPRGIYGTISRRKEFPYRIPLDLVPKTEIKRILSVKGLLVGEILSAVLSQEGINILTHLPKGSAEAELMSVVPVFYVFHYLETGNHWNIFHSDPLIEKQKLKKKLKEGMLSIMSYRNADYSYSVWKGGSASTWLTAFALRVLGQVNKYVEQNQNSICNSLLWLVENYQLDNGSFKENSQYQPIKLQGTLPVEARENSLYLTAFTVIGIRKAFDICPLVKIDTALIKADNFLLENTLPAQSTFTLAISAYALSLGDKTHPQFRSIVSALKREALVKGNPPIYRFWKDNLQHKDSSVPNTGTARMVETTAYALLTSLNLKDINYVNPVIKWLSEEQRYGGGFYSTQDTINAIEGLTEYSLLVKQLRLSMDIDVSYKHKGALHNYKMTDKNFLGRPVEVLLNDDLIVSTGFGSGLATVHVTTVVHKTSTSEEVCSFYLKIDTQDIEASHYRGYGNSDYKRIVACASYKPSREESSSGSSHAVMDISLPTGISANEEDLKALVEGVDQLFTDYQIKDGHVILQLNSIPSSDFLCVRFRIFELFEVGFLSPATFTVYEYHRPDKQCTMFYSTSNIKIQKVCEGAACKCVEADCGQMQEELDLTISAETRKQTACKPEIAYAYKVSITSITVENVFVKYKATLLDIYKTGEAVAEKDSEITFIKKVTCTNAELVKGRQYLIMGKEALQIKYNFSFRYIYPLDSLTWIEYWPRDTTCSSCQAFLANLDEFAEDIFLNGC
- protocol-description: Competitive fluorescence polarization assay with probe R3076
- Assay type: binding
- Parameters: purchased Complement Technology, Tyler, Tex
- measurement-context: average of Exp 1 and Exp 2; read-out: Avg, nM Ki
Starred links: 1 amine or outer side, 2 acyl side, 3 side chain; linkers in the order of their positions; H or OH if unused. Positions of bridges follow the written chain, without caps; N, C: chain ends. Non-standard residues stand in square brackets, D forms with d. Residues, ends and D or L forms follow the SMILES beside them. Trp(7-aza) = N[C@@H](Cc1c[nH]c2ncccc12)C(=O)O; mXylylene = c1cc(C[*:1])cc(C[*:2])c1; Phg = N[C@H](C(=O)O)c1ccccc1; Tle = CC(C)(C)[C@H](N)C(=O)O; NMeS = CN[C@@H](CO)C(=O)O; Nva = CCC[C@H](N)C(=O)O
assay-readout: Ki (nM)

compound	experimental-target	unit-name	inequality-symbol	experimental-result
CCC[C@H](NC(=O)[C@@H]1CCCN1C(=O)[C@H](CCC)NC(=O)[C@@H]1CSCc2cccc(c2)CSC[C@H](NC(C)=O)C(=O)N[C@@H](c2ccccc2)C(=O)N[C@@H]([C@@H](C)O)C(=O)N[C@@H](Cc2c[nH]c3ncccc23)C(=O)N[C@@H](CCC(=O)O)C(=O)N[C@@H](Cc2ccc(O)cc2)C(=O)N(C)[C@@H](CO)C(=O)N[C@@H](Cc2c[nH]cn2)C(=O)N1)C(N)=O [Compound R3014] (Ac-C[Phg]T[Trp(7-aza)]EY[NMeS]HC[Nva]P[Nva]-NH2; linker 1-9 via mXylylene)	C5 (Homo sapiens, UniProt P01031)	nM	=	1490
CCC[C@H](NC(=O)[C@H](Cc1ccc(O)cc1)NC(=O)[C@H](CC(N)=O)NC(=O)[C@H](CCC)NC(=O)[C@H](CCC(=O)O)NC(=O)[C@@H](NC(=O)[C@H](Cc1c[nH]c2ncccc12)NC(=O)[C@@H](NC(=O)[C@H](CS)NC(=O)[C@H](Cc1ccc(O)cc1)NC(=O)[C@@H]1CCCN1C(=O)[C@H](Cc1ccc(O)cc1)NC(C)=O)c1ccccc1)C(C)(C)C)C(=O)N[C@@H](CCC(=O)O)C(N)=O [Compound R3023] (Ac-YPYC[Phg][Trp(7-aza)][Tle]E[Nva]NY[Nva]E-NH2)	C5 (Homo sapiens, UniProt P01031)	nM	>	1000
CSCC[C@H](N)C(=O)N[C@H]1CSCc2cccc(c2)CSC[C@@H](C(=O)N[C@@H](CC(=O)O)C(=O)N[C@H](C(=O)N[C@@H](Cc2ccc(O)cc2)C(=O)N[C@@H](Cc2c[nH]c3ccccc23)C(=O)N[C@@H](CCC(=O)O)C(N)=O)C(C)C)NC(=O)[C@H](Cc2ccccc2)NC(=O)[C@H](CCCNC(=N)N)NC(=O)[C@H](CCC(=O)O)NC(=O)[C@H](C(C)C)NC1=O [Compound R3043, [mXylyl(2,7)]M-C-V-E-R-F-C-D-V-Y-W-E-NE2] (H-MCVERFCDVYWE-NH2; linker 2-7 via mXylylene)	C5 (Homo sapiens, UniProt P01031)	nM	=	874

---

- experimental-target: C5 (Homo sapiens)
- protocol-description: Human hemolysis assay (RBC lysis assay using complete human sera)
- Format: cell-based
- Design: with complete human sera (Complement Technology, Tyler Tex.) and polypeptides; tissue Complement Technology, Tyler Tex; host or cells: complete human serum
- measurement-context: inhibition of lysis of antibody-sensitized sheep erythrocytes, complete human sera
pIC50: −log10 of the molar value. Starred links: 1 amine or outer side, 2 acyl side, 3 side chain; linkers in the order of their positions; H or OH if unused. Positions of bridges follow the written chain, without caps; N, C: chain ends. Non-standard residues stand in square brackets, D forms with d. Residues, ends and D or L forms follow the SMILES beside them. Ala(1H-tetrazol-5-yl) = N[C@@H](Cc1nnn[nH]1)C(=O)O; Trp(7-aza) = N[C@@H](Cc1c[nH]c2ncccc12)C(=O)O; NMePhe(4-F) = CN[C@@H](Cc1ccc(F)cc1)C(=O)O; mXylylene = c1cc(C[*:1])cc(C[*:2])c1; Phg = N[C@H](C(=O)O)c1ccccc1; Tle = CC(C)(C)[C@H](N)C(=O)O; NMeS = CN[C@@H](CO)C(=O)O; NMeA = CN[C@@H](C)C(=O)O; Nva = CCC[C@H](N)C(=O)O; Sar = CNCC(=O)O

compound	experimental-target	inequality-symbol	pIC50
CCC[C@H](NC(=O)[C@@H]1CSCc2cccc(c2)CSC[C@H](NC(=O)[C@H](CCC)NC(C)=O)C(=O)N[C@@H](c2ccccc2)C(=O)N[C@@H]([C@@H](C)O)C(=O)N[C@@H](Cc2c[nH]c3ncccc23)C(=O)N[C@@H](CCC(=O)O)C(=O)N[C@@H](Cc2ccc(O)cc2)C(=O)N(C)[C@@H](C)C(=O)N[C@@H](Cc2c[nH]cn2)C(=O)N1)C(N)=O [Compound R3037] (Ac-[Nva]C[Phg]T[Trp(7-aza)]EY[NMeA]HC[Nva]-NH2; linker 2-10 via mXylylene)	C5 (Homo sapiens)	=	6.56
CCC[C@H](NC(=O)[C@H](Cc1ccc(O)cc1)NC(=O)[C@H](CC(N)=O)NC(=O)[C@H](CCC)NC(=O)[C@H](CCC(=O)O)NC(=O)[C@@H](NC(=O)[C@H](Cc1c[nH]c2ncccc12)NC(=O)[C@@H](NC(=O)[C@H](CS)NC(=O)[C@H](Cc1ccc(O)cc1)NC(=O)[C@@H]1CCCN1C(=O)[C@H](Cc1ccc(O)cc1)NC(C)=O)c1ccccc1)C(C)(C)C)C(=O)N[C@@H](CCC(=O)O)C(N)=O [Compound R3023] (Ac-YPYC[Phg][Trp(7-aza)][Tle]E[Nva]NY[Nva]E-NH2)	C5 (Homo sapiens)	<	4.00
CSCC[C@H](N)C(=O)N[C@H]1CSCc2cccc(c2)CSC[C@@H](C(=O)N[C@@H](CCC(=O)O)C(=O)N[C@H](C(=O)N[C@@H](CCCNC(=N)N)C(=O)N[C@@H](Cc2c[nH]c3ccccc23)C(=O)N[C@@H](CCC(=O)O)C(=O)N[C@@H](Cc2ccc(O)cc2)C(N)=O)C(C)C)NC(=O)[C@H](Cc2ccc(O)cc2)NC(=O)[C@H](CCCNC(=N)N)NC(=O)[C@H](CCC(=O)O)NC(=O)[C@H](CO)NC1=O [Compound R3020] (H-MCSERYCEVRWEY-NH2; linker 2-7 via mXylylene)	C5 (Homo sapiens)	=	7.61
CCC[C@H](N)C(=O)N[C@H]1CSCc2cccc(c2)CSC[C@@H](C(N)=O)NC(=O)CN(C)C(=O)[C@H](Cc2ccc(F)cc2)N(C)C(=O)[C@H](Cc2c[nH]cn2)NC(=O)[C@H](CO)N(C)C(=O)[C@H](Cc2ccc(F)cc2)N(C)C(=O)[C@H](c2ccccc2)NC(=O)[C@H](CO)N(C)C(=O)[C@H](Cc2ccc(O)cc2)NC1=O [Compound R3051] (H-[Nva]CY[NMeS][Phg][NMePhe(4-F)][NMeS]H[NMePhe(4-F)][Sar]C-NH2; linker 2-11 via mXylylene)	C5 (Homo sapiens)	<	4.00
CCC[C@H](NC(=O)[C@@H]1CSCc2cccc(c2)CSC[C@H](NC(=O)[C@H](CCC)NC(C)=O)C(=O)N[C@@H](c2ccccc2)C(=O)N[C@@H]([C@@H](C)O)C(=O)N[C@@H](Cc2c[nH]c3ccccc23)C(=O)N[C@@H](Cc2nnn[nH]2)C(=O)N[C@@H](Cc2ccc(O)cc2)C(=O)N(C)[C@@H](CO)C(=O)N[C@@H](Cc2c[nH]cn2)C(=O)N1)C(N)=O [Compound R3131] (Ac-[Nva]C[Phg]TW[Ala(1H-tetrazol-5-yl)]Y[NMeS]HC[Nva]-NH2; linker 2-10 via mXylylene)	C5 (Homo sapiens)	<	4.00

---

Recorded IC50 values for a group of compounds are listed next.
- experimental-target: C5 (Homo sapiens, UniProt P01031)
- protocol-description: Human hemolysis assay (RBC lysis assay using complete human sera)
- Assay type: cell-based
- Design: with complete human sera (Complement Technology, Tyler Tex.) and polypeptides; tissue Complement Technology, Tyler Tex; host or cells: complete human serum
- measurement-context: inhibition of lysis of antibody-sensitized sheep erythrocytes, complete human sera
Starred links: 1 amine or outer side, 2 acyl side, 3 side chain; linkers in the order of their positions; H or OH if unused. Positions of bridges follow the written chain, without caps; N, C: chain ends. Non-standard residues stand in square brackets, D forms with d. Residues, ends and D or L forms follow the SMILES beside them. Trp(7-aza) = N[C@@H](Cc1c[nH]c2ncccc12)C(=O)O; mXylylene = c1cc(C[*:1])cc(C[*:2])c1; Phg = N[C@H](C(=O)O)c1ccccc1; NMeS = CN[C@@H](CO)C(=O)O; Nva = CCC[C@H](N)C(=O)O; Aib = CC(C)(N)C(=O)O

compound	inequality-symbol	IC50, nM
CCC[C@H](NC(=O)[C@@H](NC(=O)[C@@H]1CCCN1C(=O)[C@H](Cc1ccc(O)cc1)NC(=O)[C@H](CCC(=O)O)NC(=O)[C@H](Cc1cn(C)c2ccccc12)NC(=O)[C@H](Cc1ccc(O)cc1)NC(=O)[C@@H](NC(=O)[C@H](CC(N)=O)NC(=O)[C@H](CCC(=O)O)NC(=O)[C@H](Cc1ccc(O)cc1)NC(C)=O)C(C)(C)C)c1ccccc1)C(N)=O	=	2940
CCC[C@H](NC(=O)[C@@H]1CSCc2cccc(c2)CSC[C@H](NC(=O)[C@H](CCC)NC(C)=O)C(=O)N[C@@H](c2ccccc2)C(=O)NC(C)(C)C(=O)N[C@@H](Cc2c[nH]c3ncccc23)C(=O)N[C@@H](CCC(=O)O)C(=O)N[C@@H](Cc2ccc(O)cc2)C(=O)N(C)[C@@H](CO)C(=O)N[C@@H](Cc2c[nH]cn2)C(=O)N1)C(N)=O [Compound R3096] (Ac-[Nva]C[Phg][Aib][Trp(7-aza)]EY[NMeS]HC[Nva]-NH2; linker 2-10 via mXylylene)	>	50000
CCC[C@H](NC(=O)[C@@H]1CSCc2cccc(c2)CSC[C@H](NC(=O)[C@H](CCC)NC(C)=O)C(=O)N[C@@H](c2ccccc2)C(=O)N[C@@H]([C@@H](C)O)C(=O)N[C@@H](Cc2c[nH]c3ccccc23)C(=O)N[C@@H](CCC(=O)O)C(=O)N[C@@H](Cc2ccc(O)cc2)C(=O)N(C)[C@@H](CO)C(=O)N[C@@H](C)C(=O)N1)C(N)=O [Compound R3091] (Ac-[Nva]C[Phg]TWEY[NMeS]AC[Nva]-NH2; linker 2-10 via mXylylene)	=	483
